- experimental-details: Pharmacokinetics in beagles, multiple-dose regimen (once per day for 7 days) of TRQI or TRQC, plasma LC-MS/MS
- Type: in vivo
- experimental-context: both sexes, beagle, dog, iv, TRQI 0.5 mL/kg once per day for 7 days, mean
- Procedure: 100 μL plasma sample was drawn and transferred to 1.5 mL centrifuge tube prior to 300 μL protein precipitant (3:1 [v/v] methanol/acetonitrile, containing 0.1% formic acid and 100 ng/mL IS) was added, and then the sample was vortex-mixed for 3 min. The mixture was centrifuged at 20,000 ×g for 10 min, and 100 μL supernatant was transferred to the injection vial and analyzed directly by LC–MS/MS. […]
reported-metric: Tmax at 7 days
Please state the value followed by its unit.

{"compound": "O=C(/C=C/c1ccc(O)c(O)c1)O[C@@H]1C[C@](O)(C(=O)O)C[C@@H](O)[C@H]1O [Chlorogenic acid, chlorogenic acid]", "reported-metric": "Tmax at 7 days", "result": "10.8 min"}

Here is the next item to consider.
Please look at this compound and report its Tmax at 7 days: O=C(O)[C@H]1O[C@@H](Oc2cc3oc(-c4ccccc4)cc(=O)c3c(O)c2O)[C@H](O)[C@@H](O)[C@@H]1O [Baicalin, baicalin]
6.6 min
